Molecular target: AAK1 (Homo sapiens)
Construct: to maximize the representation of endogenous proteins; endogenous in cells
Sequence (Q2M2I8 whole entry): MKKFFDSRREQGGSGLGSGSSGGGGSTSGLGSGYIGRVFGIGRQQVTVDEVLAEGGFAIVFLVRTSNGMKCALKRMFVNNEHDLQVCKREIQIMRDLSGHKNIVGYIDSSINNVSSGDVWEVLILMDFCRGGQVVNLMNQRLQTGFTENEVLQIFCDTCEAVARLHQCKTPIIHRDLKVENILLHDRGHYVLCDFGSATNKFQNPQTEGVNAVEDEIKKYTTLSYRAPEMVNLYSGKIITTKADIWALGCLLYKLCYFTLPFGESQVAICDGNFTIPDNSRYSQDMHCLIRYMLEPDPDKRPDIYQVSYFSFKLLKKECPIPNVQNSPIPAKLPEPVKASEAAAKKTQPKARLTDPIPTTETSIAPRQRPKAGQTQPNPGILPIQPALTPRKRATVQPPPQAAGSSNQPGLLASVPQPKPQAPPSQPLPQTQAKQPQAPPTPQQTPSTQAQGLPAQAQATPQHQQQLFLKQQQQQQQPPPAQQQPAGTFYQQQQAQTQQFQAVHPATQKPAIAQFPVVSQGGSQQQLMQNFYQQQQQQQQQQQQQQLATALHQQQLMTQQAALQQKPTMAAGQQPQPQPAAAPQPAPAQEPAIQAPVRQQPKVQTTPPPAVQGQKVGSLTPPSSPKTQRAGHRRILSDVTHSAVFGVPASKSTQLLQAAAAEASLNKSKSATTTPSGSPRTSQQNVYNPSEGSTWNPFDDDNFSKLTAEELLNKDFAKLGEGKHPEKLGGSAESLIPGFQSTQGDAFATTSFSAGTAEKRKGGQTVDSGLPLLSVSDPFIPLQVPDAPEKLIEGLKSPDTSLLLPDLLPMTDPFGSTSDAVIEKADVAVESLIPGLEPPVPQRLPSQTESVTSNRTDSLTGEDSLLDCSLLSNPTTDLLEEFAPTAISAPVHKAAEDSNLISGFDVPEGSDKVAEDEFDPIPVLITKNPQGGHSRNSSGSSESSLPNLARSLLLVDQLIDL
Assay: Kinobeads two-dose competition binding: AAK1;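 note: kinobeads competition pulldown from cell lysate, compound preincubated 45 min at 4 °C, bead-bound protein measured by label-free mass spectrometry against DMSO vehicle control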
Details: sheet CATDS matrix 2; Gene Name AAK1
result.type: CATDS
One number for each entry.

Nc1nc(Nc2ccccc2)cc(-c2ccc3c(N)n[nH]c3c2)n1 [GSK2225749A] = 0.2514

Record CATDS per entry; entries follow.
1. Cc1ccc(NC(=O)c2cccc(N3CCCCC3)c2)cc1-c1ccc(C(=O)NCC2CC2)cc1 [GSK1917008A]
2. NCC1CNC(=O)c2cc3ccc(C(=O)Nc4cccnc4)cc3n2C1 (stereo not drawn)
3. O=C(Nc1c(F)cccc1F)c1cc(C(=O)c2ccccc2F)c[nH]1 [GSK1326180A]
4. COc1cc(Nc2nccc(N3CCC(NC(=O)c4cccc(NC(C)=O)c4)C3)n2)cc(OC)c1OC (stereo not drawn) [GSK1379754A]

1: 0; 2: 0; 3: 0; 4: 0.1752

Give one value of CATDS per listed compound.
1. O=c1[nH]ccc2nc(N[C@@H]3CCNC3)nc(Nc3cc(Cl)cc(Cl)c3)c12 [GSK2188764A]
2. Nc1ncc(-c2ccc3nccc(-c4ccncc4)c3c2)cc1S(=O)(=O)N1CCCCC1 [GSK1693850A]
3. NCC(C(=O)Nc1cc(Br)c(-c2ccnc3[nH]ccc23)s1)c1ccccc1 (stereo not drawn) [GSK1269851A]
4. O=c1cc(N2CCOCC2)nc2n(Cc3cccc(Cl)c3Cl)ccn12 [GSK2286295A]
5. COc1cc2ncn(-c3cc(OCCc4ccccc4)c(C(N)=O)s3)c2cc1OC [GSK204925A]
6. COc1ccc(Nc2ncc(C#N)c(Nc3ccccc3C(N)=O)n2)cc1N1CCN(C)CC1 [GSK1558669A]
7. COc1cc(N2CCN(C(C)C)CC2)ccc1Nc1nc(Nc2ccc(F)cc2C(=O)NC[C@@H](O)CO)c2cc[nH]c2n1 [GSK1392956A]

[0.04842, 0, 0.03418, 0, 0, 0.01049, 0]

Need CATDS for each of these compounds.
1. Nc1ncnc2[nH]c(-c3ccccc3)nc12
2. COc1ccc2nc(-c3cccc(C)n3)nc(Nc3ccncc3)c2c1

1. 0
2. 0
